- experimentalSystem: USP7 (Homo sapiens, UniProt Q93009)
- Construct: USP7, construct USP7 (208-1102) 6*His, Viva Biotech; 6xHis (C); purchased Viva Biotech
- Sequence (Q93009 208-1102): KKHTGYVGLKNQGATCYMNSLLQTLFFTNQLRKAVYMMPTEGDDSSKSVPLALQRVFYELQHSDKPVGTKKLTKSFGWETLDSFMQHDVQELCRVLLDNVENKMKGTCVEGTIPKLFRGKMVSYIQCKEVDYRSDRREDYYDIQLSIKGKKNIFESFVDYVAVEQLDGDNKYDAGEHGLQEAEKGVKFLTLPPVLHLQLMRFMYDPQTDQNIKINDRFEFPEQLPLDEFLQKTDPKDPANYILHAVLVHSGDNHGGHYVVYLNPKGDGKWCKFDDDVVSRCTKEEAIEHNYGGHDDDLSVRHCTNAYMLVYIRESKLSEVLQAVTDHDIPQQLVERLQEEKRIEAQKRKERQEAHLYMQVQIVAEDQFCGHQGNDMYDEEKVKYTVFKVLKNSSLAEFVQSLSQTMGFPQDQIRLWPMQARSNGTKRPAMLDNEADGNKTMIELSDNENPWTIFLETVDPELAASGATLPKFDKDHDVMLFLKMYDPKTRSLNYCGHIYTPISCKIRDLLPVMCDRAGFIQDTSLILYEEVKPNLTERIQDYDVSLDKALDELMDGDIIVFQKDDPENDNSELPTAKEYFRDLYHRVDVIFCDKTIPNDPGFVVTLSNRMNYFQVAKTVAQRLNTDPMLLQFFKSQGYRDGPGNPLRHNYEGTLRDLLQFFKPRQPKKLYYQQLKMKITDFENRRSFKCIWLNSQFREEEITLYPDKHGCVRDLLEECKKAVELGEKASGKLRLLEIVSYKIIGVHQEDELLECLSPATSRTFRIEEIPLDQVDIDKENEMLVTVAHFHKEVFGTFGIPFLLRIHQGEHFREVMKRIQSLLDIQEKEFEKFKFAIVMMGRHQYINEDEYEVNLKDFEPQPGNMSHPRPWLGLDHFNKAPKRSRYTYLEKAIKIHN
- protocolDetails: USP7 Assay A (Ubitquin-Rhodamine 110 Assay)
- Assay type: biochemical
- experimentalParameters: USP7 assay A and B (table does not say which assay per compound); read-out: USP7_IC50
assayMetric: IC50

For this compound ( O=C(Nc1ccc(-n2ncc3c(=O)n(CC4(O)CCN(C(=O)C5CC5)CC4)cnc32)cc1)C1CCOCC1 ), measured IC50 is 1000 to 10000 nM

Query O=C(c1ccc(C2CC2)cc1)N1CCC(O)(Cn2cnc3c(cnn3-c3ccccc3)c2=O)CC1 yields IC50 of 200 to 1000 nM

For Nc1cc(Cl)ccc1C(=O)N1CCC(O)(Cn2cnc3c(cnn3-c3ccccc3)c2=O)CC1 the compound record lists IC50 as 200 to 1000 nM

// sample O=C(c1ccccc1)N1CCC(O)(Cn2cnc3c(ccn3-c3ccc(F)cc3)c2=O)CC1 , its IC50 was 1000 to 10000 nM

Record NC(=O)COc1ccc(-n2ncc3c(=O)n(CC4(O)CCN(C(=O)c5ccc(F)cc5)CC4)cnc32)cc1 , field IC50: 1000 to 10000 nM

# IC50 of COCCOc1ccc(-n2ncc3c(=O)n(CC4(O)CCN(C(=O)c5ccc(F)cc5)CC4)cnc32)cc1 = 1000 to 10000 nM

// IC50 value for O=C(C1CC1)N1CCC(O)(Cn2cnc3c(cnn3-c3cccc(NCc4cccnc4)c3)c2=O)CC1 : 1000 to 10000 nM

----------
- experimentalSystem: USP7 (Homo sapiens, UniProt Q93009)
- Construct: USP7, construct USP7 (208-1102) 6*His, Viva Biotech; 6xHis (C); purchased Viva Biotech
- protocolDetails: USP7 Assay A (Ubitquin-Rhodamine 110 Assay)
- Type: biochemical
- experimentalParameters: USP7 assay A and B (table does not say which assay per compound); read-out: USP7_IC50
assayMetric: IC50

// field: IC50; key: CN(C)C(=O)Nc1cccc(-n2ncc3c(=O)n(CC4(O)CCN(C(=O)C5CC5)CC4)cnc32)c1 ; value = 1000 to 10000 nM

Entry CC(C)OCCNc1cccc(-n2ncc3c(=O)n(CC4(O)CCN(C(=O)C5CC5)CC4)cnc32)c1 , IC50 reported as 1000 to 10000 nM

The compound identified as O=C(O)c1ccc(C(=O)N2CCC(O)(Cn3cnc4c(cnn4-c4ccccc4)c3=O)CC2)cc1 registered its IC50 at 1000 to 10000 nM

Value of IC50 reported for the compound O=C(N1CCC(O)(Cn2cnc3c(cnn3-c3ccccc3)c2=O)CC1)C12CC(C1)C2 is 200 to 1000 nM

IC50 reading for Cc1ccc(-n2ncc3c(=O)n(CC4(O)CCN(C(=O)c5ccc(Oc6ncccn6)cc5)CC4)cnc32)cc1 : 200 to 1000 nM

Kindly note the recorded IC50 for O=C(C1CC1)N1CCC(O)(Cn2cnc3c(cnn3-c3ccc(Oc4ccccc4)cc3)c2=O)CC1 , which is 1000 to 10000 nM

# IC50 (compound: CN(C)C(=O)N1CCC(O)(Cn2cnc3c(cnn3-c3ccc(NC4CC(C)(C)C4)cc3)c2=O)CC1 ) is 1000 to 10000 nM

Quick note, IC50 for O=C(C1CC1)N1CCC(O)(Cn2cnc3c(cnn3-c3cccc(-c4cccc5[nH]ccc45)c3)c2=O)CC1 landed at 1000 to 10000 nM

Looking up CS(=N)(=O)c1ccc(-n2ncc3c(=O)n(CC4(O)CCN(C(=O)c5ccc(F)cc5)CC4)cnc32)cc1 (single isomer, unassigned) [Compound I-998] , I found its IC50 recorded as 1000 to 10000 nM

IC50 in this record for O=C(C1CC1)N1CCC(O)(Cn2cnc3c(cnn3-c3ccc(-c4cccc(F)c4)cc3)c2=O)CC1 : 1000 to 10000 nM

// Cn1ncc2c(=O)n(CC3(O)CCN(C(=O)C[C@@H](c4ccccc4)C(F)(F)F)CC3)cnc21 : IC50 value = > 10000 nM

The measured IC50 associated with C[C@@H](CC(=O)N1CCC(O)(Cn2cnc3c(cnn3-c3ccc(F)cc3)c2=O)CC1)n1cccn1 reads 200 to 1000 nM

// IC50 lookup, compound = CC(C)N1CCC(c2ccc(-n3ncc4c(=O)n(CC5(O)CCN(C(=O)N(C)C)CC5)cnc43)cc2)CC1 , result: 1000 to 10000 nM

So, Cc1ncc(C(=O)N2CCC(O)(Cn3cnc4c(cnn4-c4ccc(F)cc4)c3=O)CC2)o1 ? Its IC50 was 1000 to 10000 nM

Lab book: IC50 of NC1(c2cccc(-c3ccc(-n4ncc5c(=O)n(CC6(O)CCN(C(=O)C7CC7)CC6)cnc54)cc3)c2)COC1 noted as 1000 to 10000 nM

Please fill in: IC50 reported for C=CC(=O)N1CC[C@]1(C)C(=O)N1CCC(O)(Cn2cnc3c(cnn3-c3ccc(F)cc3)c2=O)CC1 = 200 to 1000 nM

// IC50 value for O=C(c1ccc(F)cc1)N1CCC(O)(Cn2cnc3c(cnn3-c3cccc(OCC4CCOCC4)c3)c2=O)CC1 : 1000 to 10000 nM

The compound identified as O=C(C1CC1)N1CCC(O)(Cn2cnc3c(cnn3-c3ccc(F)cc3)c2=O)CC1 registered its IC50 at 1000 to 10000 nM

Recorded IC50 (compound CCc1ccc(CN(C)Cc2ccc(-n3ncc4c(=O)n(CC5(O)CCN(C(=O)C6CC6)CC5)cnc43)cc2)cn1 ): 1000 to 10000 nM

Lab note: measured IC50 of C=CS(=O)(=O)N[C@H](Cc1ccccc1)C(=O)N1CCC(O)(Cn2cnc3c(cnn3-c3ccccc3)c2=O)CC1 was 200 to 1000 nM

Input O=C(Nc1ccc(-n2ncc3c(=O)n(CC4(O)CCN(C(=O)C5CC5)CC4)cnc32)cc1)N1CCCC1 . Output IC50: 1000 to 10000 nM

Lab note: O=C(c1cc2n(n1)CCCO2)N1CCC(O)(Cn2cnc3c(cnn3-c3ccc(Cl)cc3)c2=O)CC1 gave IC50 of 1000 to 10000 nM

Reported IC50 of C=CC(=O)N1CC[C@@H]1C(=O)N1CCC(O)(Cn2cnc3c(cnn3-c3ccc(F)cc3)c2=O)CC1 : 200 to 1000 nM

# IC50 (compound: O=C(C1CC1)N1CCC(O)(Cn2cnc3c(cnn3-c3cccc(Nc4ccc5ncsc5c4)c3)c2=O)CC1 ) is 200 to 1000 nM

# IC50 (compound: O=C(C1CC1)N1CCC(O)(Cn2cnc3c(cnn3-c3ccc(-c4ccccc4)c(N4CCNCC4)c3)c2=O)CC1 ) is 200 to 1000 nM

// sample O=C(c1cnc(C2CC2)o1)N1CCC(O)(Cn2cnc3c(cnn3-c3ccc(-c4ccccc4)cc3)c2=O)CC1 , its IC50 was 200 to 1000 nM

----------
- experimentalSystem: USP7 (Homo sapiens)
- Construct: USP7, construct USP7 (208-1102) 6*His, Viva Biotech; 6xHis (C); purchased Viva Biotech
- protocolDetails: USP7 Assay A (Ubitquin-Rhodamine 110 Assay)
- Assay type: biochemical
- experimentalParameters: USP7 activity in USP7 assay A and B (table does not say which assay per compound); read-out: USP7_IC50
assayMetric: IC50

Data point: O=C(C1CCC(OC2CCOCC2)CC1)N1CCC(O)(Cn2cnc3c(cnn3-c3ccc(F)cc3)c2=O)CC1 (stereo not drawn) [Compound I-926] ; IC50 = 0.2 to 1 µM

Recorded result, C[C@]1(O)CCN(c2ccc(-n3ncc4c(=O)n(CC5(O)CCN(C(=O)C[C@@H](C(F)F)n6cccn6)CC5)cnc43)cc2)C1 [Compound I-835] , IC50: < 0.2 µM

For O=C(C1CCC(Oc2ccccn2)CC1)N1CCC(O)(Cn2cnc3c(cnn3-c3ccc(F)cc3)c2=O)CC1 (stereo not drawn) [Compound I-544] the compound record lists IC50 as 1 to 10 µM

Quick note, IC50 for O=C(c1cnc(N2CCOCC2)o1)N1CCC(O)(Cn2cnc3c(cnn3-c3ccc(F)cc3)c2=O)CC1 [Compound I-555] landed at 0.2 to 1 µM

Per the records, this compound ( C=CC(=O)N1[C@@H](C(=O)N2CCC(O)(Cn3cnc4c(cnn4-c4ccc(F)cc4)c3=O)CC2)C[C@@H]1C [Compound I-1003] ) has IC50 equal to 1 to 10 µM

Record O=C(c1ccc(F)cc1)N1CCC(O)(Cn2cnc3c(cnn3-c3ccc(OCC4(F)CCOCC4)cc3)c2=O)CC1 [Compound I-693] , field IC50: 0.2 to 1 µM

----------
- experimentalSystem: USP7 (Homo sapiens)
- Construct: USP7, construct USP7 (208-1102) 6*His, Viva Biotech; 6xHis (C); purchased Viva Biotech
- protocolDetails: USP7 Assay A (Ubitquin-Rhodamine 110 Assay)
- Type: biochemical
- experimentalParameters: USP7 assay A and B (table does not say which assay per compound); read-out: USP7_IC50
- Procedure: Each assay was performed in a final volume of 15 μL in assay buffer containing 20 mM Tris-HCl (pH 8.0, (1M Tris-HCl, pH 8.0 solution; Corning 46-031-CM)), 1 mM GSH (L-Glutathione reduced; Sigma #G4251), 0.03% BGG ([…], Sigma, #G7516-25G), and 0.01% Triton X-100 (Sigma, #T9284-10L). […] Fluorescence was read on the Envision (Excitation at 485 nm and Emission at 535 nm; Perkin Elmer) or on the PheraSTAR (Excitation at 485 nm and Emission at 535 nm; BMG Labtech). […]
pIC50: −log10 of the molar value.
Give measured pIC50 for each item. Keep answers brief.

Measured on USP7 (Homo sapiens), O=C(c1cnc(C2CC2)o1)N1CCC(O)(Cn2cnc3c(cnn3-c3ccc(Cl)cc3)c2=O)CC1 has a documented pIC50 of 6.00 to 6.70

Result for Cc1ccc(-n2ncc3c(=O)n(CC4(O)CCN(C(=O)c5ccc(OC(F)F)cc5)CC4)cnc32)cc1 , tested on USP7 (Homo sapiens), pIC50: 6.00 to 6.70

The reported USP7 (Homo sapiens) pIC50 of O=C(c1ccc(F)cc1)N1CCC(O)(Cn2cnc3c(cnn3-c3ccc(F)c(N4CCOCC4)c3)c2=O)CC1 is 5.00 to 6.00

The value of pIC50 recorded for CN(C)C1CCN(C(=O)c2cccc(-n3ncc4c(=O)n(CC5(O)CCN(C(=O)C6CC6)CC5)cnc43)c2)CC1 when tested on USP7 (Homo sapiens) reads 5.00 to 6.00

# value of pIC50, USP7 (Homo sapiens), item O=C(c1ccnc(Cl)c1)N1CCC(O)(Cn2cnc3c(cnn3-c3ccccc3)c2=O)CC1 = 5.00 to 6.00

FYI, the data here is from patent US9902728B2.
